Tested on: NCI-H226 lung
assay-name: NCI-60 one-dose screen, 48 h
condition-notes: 10 µM unless noted
Compounds without any hit were thinned out: in the full panel of roughly 83,000, 20% have a hit. Active and inactive are the calls of the source. How the source made its calls: active means growth percent below 10; inactive means the rest.
Lab note: assign the record to one of 1.0 for active, 0.0 for inactive

Problem: Answer briefly: the call reported for CN1CCN(c2ccc(Nc3c4ccccc4nc4ccccc34)cc2)CC1 in this assay.
Solution: 0.0

Problem: Answer briefly: the call reported for CC(=O)O[C@H]1CC[C@]2(C)[C@H]3CC=C4[C@@H]5CC(C)(C)CC[C@]5(C(=O)NCCNCCN)CC[C@@]4(C)[C@]3(C)CC[C@H]2C1(C)C in this assay.
Solution: 0.0

Problem: Answer briefly: the call reported for CCCCCC(=O)Oc1ccc(/C(=C(\C)c2ccc(OC)cc2)c2ccc(OCCN3CCCCC3)cc2)cc1 in this assay.
Solution: 0.0

Problem: Answer briefly: the call reported for Cn1cc(-c2nonc2-c2cn(C)c3ccc(F)cc23)c2cc(F)ccc21 in this assay.
Solution: 0.0

Problem: Answer briefly: the call reported for CN(C)CCN1C(=O)c2cccc3c(N)ccc(c23)C1=O in this assay.
Solution: 0.0

Problem: Answer briefly: the call reported for C#CCOc1ccc2ncnc(N3CCC(NC(=O)CCl)CC3)c2c1 in this assay.
Solution: 1.0

Problem: Answer briefly: the call reported for CCN1CCN(c2nc(NCCNc3ccnc4cc(Cl)ccc34)c3ccccc3n2)CC1 in this assay.
Solution: 0.0

Problem: Answer briefly: the call reported for CN1CCN=C1c1ccc(NC(=O)c2ccc(C(=O)Nc3ccc(C4=NCCN4C)cc3)cc2)cc1 in this assay.
Solution: 0.0

Problem: Answer briefly: the call reported for CCC(=O)c1ccc(Cl)s1 in this assay.
Solution: 0.0

Problem: Answer briefly: the call reported for Cn1ccnc1C(=O)/C=C/c1ccc(CC(=O)Nc2ccccc2)cc1 in this assay.
Solution: 0.0

Problem: Answer briefly: the call reported for CN(C)S(=O)(=O)c1cccc(-c2nc3sc4c(c3c(=O)[nH]2)CCCC4)c1 in this assay.
Solution: 0.0

Problem: Answer briefly: the call reported for COc1ccc(C2Nc3c(c(C(C)(C)C)nn3-c3ccccc3)C(=O)CS2)cc1 (stereo not given) in this assay.
Solution: 0.0

Problem: Answer briefly: the call reported for CCN(CC)c1ccc(-c2cc(-c3cc(OC)c(OC)c(OC)c3)nc(N3CCOCC3)c2C#N)cc1 in this assay.
Solution: 1.0

Problem: Answer briefly: the call reported for COc1ccc(/C=C\c2cc(OC)c(OC)c(OC)c2)cc1OC(=O)c1cccc(Cn2cc(CCOC(=O)[C@H](N)Cc3cn(C)c4ccccc34)nn2)c1 in this assay.
Solution: 0.0

Problem: Answer briefly: the call reported for O=C(Cn1cccc(Nc2ccccc2)c1=O)Nc1ccccc1 in this assay.
Solution: 0.0

Problem: Answer briefly: the call reported for COc1ccc(-c2cc(=O)c3c(OC)c4ccoc4cc3o2)cc1 in this assay.
Solution: 0.0

Problem: Answer briefly: the call reported for CCCCn1c(-c2ccc(C(=O)O/N=C(\N)c3ccc4ccccc4c3)cc2)nc(-c2ccccc2)c1-c1ccccc1 in this assay.
Solution: 0.0

Problem: Answer briefly: the call reported for CSc1nc2c(c(=O)[nH]1)C1(C(=O)Nc3ccccc31)c1c(nc(SC)[nH]c1=O)N2 in this assay.
Solution: 0.0

Problem: Answer briefly: the call reported for CN1CCN(c2ccc3nc(-c4ccc(OCCCCN5CCN(CCCCN6C(=O)c7cccc8cccc(c78)C6=O)CC5)cc4)[nH]c3c2)CC1 in this assay.
Solution: 0.0

Problem: Answer briefly: the call reported for O=C(O)COc1ccc(Cl)cc1C1CCCCC1 in this assay.
Solution: 0.0

Problem: Answer briefly: the call reported for O=C(/C=C/C=C/c1ccc2c(c1)OCO2)N/N=C\c1ccc(O)cc1O in this assay.
Solution: 0.0

Problem: Answer briefly: the call reported for FC(F)(F)c1[nH]ncc1-c1nc2ccc3n[nH]c(C#Cc4cccnc4)c3c2c2c1CCCC2 in this assay.
Solution: 0.0

Problem: Answer briefly: the call reported for COc1cccc(/C=C2\Oc3cc(OCCN4CCCC4)ccc3C2=O)c1 in this assay.
Solution: 0.0

Problem: Answer briefly: the call reported for CCN(CC)S(=O)(=O)c1ccc(OC)c(NC(=O)c2[nH]c(C)c3c2CCCCC3=O)c1 in this assay.
Solution: 0.0

Problem: Answer briefly: the call reported for C=CC(=O)Nc1cccc(-c2nc(SC)nc(NCCN3CCOCC3)c2C#N)c1 in this assay.
Solution: 0.0

* * *

Test system: T-47D breast
assay-name: NCI-60 one-dose screen, 48 h
condition-notes: 10 µM unless noted
About 83,000 compounds went through this panel and 20% of them were active in at least one assay; those are over-represented in the sample as a whole. Activity calls are given as the source filed them. The calls were made as follows: active = growth percent below 10; inactive = the rest.
Lab note: assign the record to one of 1 (active), -1 (inactive)

Problem: Answer briefly: the call reported for O=S(=O)(Nc1ccc(Cl)c(F)c1)c1ccc(-c2cnc(C3CC3)o2)cc1 in this assay.
Solution: -1

Problem: Answer briefly: the call reported for CC(C)(C)c1cc(/C=N\NC(=O)/C=C/C=C/c2ccc3c(c2)OCO3)c(O)c(C(C)(C)C)c1 in this assay.
Solution: -1

Problem: Answer briefly: the call reported for N#Cc1c(-c2ccc(Cl)cc2)nc(N/N=C/c2cccc(Br)c2)nc1N1CCOCC1 in this assay.
Solution: -1

Problem: Answer briefly: the call reported for COc1ccc(CN2c3ccccc3Sc3ccccc32)cc1O in this assay.
Solution: -1

Problem: Answer briefly: the call reported for COc1ccc(-c2nc3ccc(-c4nc5ccc(N6CCN(C)CC6)cc5[nH]4)cc3[nH]2)cc1OC in this assay.
Solution: -1

Problem: Answer briefly: the call reported for Oc1cccc(-c2nc(N3CCOCC3)c3c4c(sc3n2)CCCC4)c1 in this assay.
Solution: 1

Problem: Answer briefly: the call reported for CC(=O)O[C@H]1CC[C@]2(C)[C@H]3CC=C4[C@@H]5CC(C)(C)CC[C@]5(C(=O)NCCNCCN)CC[C@@]4(C)[C@]3(C)CC[C@H]2C1(C)C in this assay.
Solution: 1

Problem: Answer briefly: the call reported for O=C1c2cc3c(cc2-c2c1c1ccc(F)cc1c(=O)n2CCCNCCO)OCO3 in this assay.
Solution: 1

Problem: Answer briefly: the call reported for CCC(=O)c1ccc(Cl)s1 in this assay.
Solution: -1

Problem: Answer briefly: the call reported for O=C(COc1ccc(-c2nc3cc(Cl)c(Cl)cc3[nH]2)cc1)N=Nc1c(O)[nH]c2ccccc12 in this assay.
Solution: 1

Problem: Answer briefly: the call reported for CC(=O)c1cc2c(N)c(C(=O)Nc3cccc(F)c3C)sc2nc1C in this assay.
Solution: -1

Problem: Answer briefly: the call reported for CN1CCN(CCCOc2cccc3nc(Nc4cc(Cl)cc(Cl)c4)ccc23)CC1 in this assay.
Solution: 1

Problem: Answer briefly: the call reported for C=C1C(=O)O[C@H]2[C@H]1CC/C(COC(=O)NCc1ccc(OC)c(OC)c1)=C\CC[C@@]1(C)O[C@@H]21 in this assay.
Solution: -1

Problem: Answer briefly: the call reported for Cc1[nH]c(-c2ccc3cc[nH]c3c2)c2c1C(=O)CCCC2 in this assay.
Solution: -1

Problem: Answer briefly: the call reported for Cc1nn(-c2ccc(F)cc2)c2ncnc(Nc3ccc(NC(=O)Nc4ccc(Cl)c(C(F)(F)F)c4)cc3)c12 in this assay.
Solution: 1

Problem: Answer briefly: the call reported for CC(C)C[C@@H](NC(=O)[C@@H](Cc1ccccc1)NC(=O)c1cnccn1)B1Oc2ccc(C[C@H](NC(=O)[C@H](Cc3ccc4c(c3)OB([C@@H](CC(C)C)NC(=O)[C@@H](Cc3ccccc3)NC(=O)c3cnccn3)O4)NC(=O)[C@@H](N)CC3CCC4OB([C@@H](CC(C)C)NC(=O)[C@@H](CC5CCCCC5)NC(=O)C5CNCCN5)OC4C3)C(=O)NCCCC[C@@H]3NC(=O)[C@@H](Cc4ccccc4)NC(=O)[C@H](CC(=O)O)NC(=O)CNC(=O)[C@H](CCCNC(=N)N)NC3=O)cc2O1 (stereo partly drawn) in this assay.
Solution: 1

Problem: Answer briefly: the call reported for N#CN1CC[C@H](C(=O)Nc2cc3cc(C(N)=O)ccc3cn2)C1 in this assay.
Solution: 1

Problem: Answer briefly: the call reported for NC(=O)c1cc(Br)ccc1NC(=O)/C=C/c1ccccc1 in this assay.
Solution: -1

* * *

System: HCC-2998 colon
assay-name: NCI-60 one-dose screen, 48 h (100 = growth as untreated, 0 = no growth, -100 = all killed)
condition-notes: 10 µM unless noted
The panel holds about 83,000 compounds, 20% with a hit somewhere; the sample as a whole holds those more often.
measurement-type: growth (%)
Answer format: numeric, % implied, no suffix.

Problem: Give the measured growth for CC(=O)Oc1ccc(Cl)cc1CN(C(C)=O)C1CCCCC1
Solution: 99.4

Problem: Give the measured growth for CSc1ccc(-c2n[nH]nc2-c2cc3ccccc3s2)cc1
Solution: 82.3

Problem: Give the measured growth for CC(O)CN1CC(O)=C(c2nc3ccccc3s2)C1=N (centres undefined)
Solution: 8.02

Problem: Give the measured growth for Cn1c(NCCc2ccc(O)c(O)c2)nc2c1c(=O)n(Cc1ccc(Br)cc1)c(=O)n2C
Solution: 94

Problem: Give the measured growth for Cc1nn(-c2cc(=O)[nH]c3ccccc23)c(N)c1C#N
Solution: 115

Problem: Give the measured growth for COc1cccc(-c2nc3sccn3c2-c2ccnc(NCCCNS(=O)(=O)c3cccc(Cl)c3)c2)c1
Solution: 81.6

Problem: Give the measured growth for COc1cc(/C=C/C(=O)Nc2cccnc2Nc2ccc(F)cc2)cc(OC)c1OC
Solution: 109

Problem: Give the measured growth for NC1=C(Cl)C(=O)c2ccc(S(N)(=O)=O)cc2C1=O
Solution: -97.1

Problem: Give the measured growth for COc1ccc2[nH]cc(-c3noc(C(=O)c4cn(C)c5ccc(F)cc45)n3)c2c1
Solution: 101
